Hello, the source for this data is patent US6610677B2, in case you need it.

Observed Ki values for GSK-3β (AA 1-420) (Homo sapiens) are listed in what follows.

- line notation: "Fc1cc(F)c2[nH]nc(Nc3nc(-c4ccccc4C(F)(F)F)nc4ncccc34)c2c1"
  Ki: "< 100 nM"
- line notation: "COc1cccc(-n2nc3c(Nc4nc(-c5ccccc5)nc5ccccc45)n[nH]c3cc2=O)c1"
  Ki: "100 to 1000 nM"
- line notation: "Fc1cc(F)c2[nH]nc(Nc3nc(-c4ccc(Cl)cc4Cl)nc4ccccc34)c2c1"
  Ki: "< 100 nM"
- line notation: "FC(F)(F)c1ccccc1-c1cc(Nc2n[nH]c3ccccc23)c2ccccc2n1"
  Ki: "100 to 1000 nM"
- line notation: "FC(F)(F)c1ccc2c(Nc3nc(-c4ccccc4C(F)(F)F)nc4ccccc34)n[nH]c2c1"
  Ki: "< 100 nM"

Enter recorded Ki with GSK-3β (AA 1-420) (Homo sapiens) for NC(=O)c1cc(Nc2nc(-c3ccccc3)nc3ccccc23)[nH]n1 here.
Sequence (P49841 whole entry, the tested form may be a part): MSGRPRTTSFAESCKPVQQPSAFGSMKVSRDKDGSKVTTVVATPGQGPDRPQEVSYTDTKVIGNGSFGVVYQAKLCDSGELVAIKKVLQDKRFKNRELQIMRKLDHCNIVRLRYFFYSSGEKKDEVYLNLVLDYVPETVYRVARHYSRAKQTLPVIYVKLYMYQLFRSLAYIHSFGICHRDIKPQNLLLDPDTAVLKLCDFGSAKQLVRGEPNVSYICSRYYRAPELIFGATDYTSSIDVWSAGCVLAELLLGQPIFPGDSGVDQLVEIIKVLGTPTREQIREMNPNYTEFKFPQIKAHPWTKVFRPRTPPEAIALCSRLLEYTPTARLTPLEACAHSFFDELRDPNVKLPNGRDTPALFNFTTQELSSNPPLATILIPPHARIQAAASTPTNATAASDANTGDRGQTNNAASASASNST
1000 to 20000 nM

Enter recorded Ki with GSK-3β (AA 1-420) (Homo sapiens) for Fc1cc(F)c2[nH]nc(Nc3nc(-c4ccccc4C(F)(F)F)nc4c3CCCC4)c2c1 here.
< 100 nM

----------
Observed Ki values for Aurora-2 (Homo sapiens, UniProt O14965) are listed in what follows.

- line notation: "Fc1ccc2[nH]nc(Nc3nc(-c4ccccc4C(F)(F)F)nc4ccccc34)c2c1"
  target or test system: "Aurora-2 (Homo sapiens, UniProt O14965)"
  value measured: "1000 to 20000 nM"

Please give measured Ki of the following entry: FC(F)(F)c1ccc2[nH]nc(Nc3nc(-c4ccccc4C(F)(F)F)nc4ccccc34)c2c1
100 to 1000 nM

Please give measured Ki of the following entry: COc1cccc2c(Nc3n[nH]c4c(F)cc(F)cc34)nc(-c3ccccc3C(F)(F)F)nc12
100 to 1000 nM

Please give measured Ki of the following entry: Fc1ccc2[nH]nc(Nc3nc(-c4ccccc4C(F)(F)F)nc4c3CCC4)c2c1
1000 to 20000 nM

Please give measured Ki of the following entry: Cc1cc(Nc2nc(-c3cccc(CO)c3)nc3ccccc23)[nH]n1
< 100 nM

Please give measured Ki of the following entry: Cc1cc(Nc2nc(-c3cc(C(F)(F)F)cc(C(F)(F)F)c3)nc3ccccc23)[nH]n1
100 to 1000 nM

Please give measured Ki of the following entry: Cc1cc(Nc2nc(-c3ccccc3Cl)nc(C)c2C)n[nH]1
100 to 1000 nM

Please give measured Ki of the following entry: c1ccc2c(Nc3n[nH]c4ccccc34)nc(-n3ccnc3)nc2c1
1000 to 20000 nM

Please give measured Ki of the following entry: Cc1ccc2[nH]nc(Nc3nc(-c4ccccc4C(F)(F)F)nc4ccccc34)c2c1
1000 to 20000 nM

----------
Observed Ki values for UniProt:O14965 are listed in what follows.

# annotated cases, reported Ki shown
- line notation: "CC(=O)c1ccccc1-c1nc(Nc2cc(C)[nH]n2)c2ccccc2n1"
  value measured: "100 to 1000 nM"
- line notation: "Cc1cc(Nc2nc(-c3cccc(C(F)(F)F)c3)nc3ccccc23)[nH]n1"
  value measured: "< 100 nM"
- line notation: "Cc1cc(Nc2nc(N3CCC(O)CC3)nc3ccccc23)[nH]n1"
  value measured: "< 100 nM"
- line notation: "c1ccc2c(c1)CCCN2c1nc(Nc2cc(C3CC3)n[nH]2)c2ccccc2n1"
  value measured: "< 100 nM"
- line notation: "Cc1cc(Nc2nc(-c3cccc(C(C)C)c3)nc3ccccc23)[nH]n1"
  value measured: "< 100 nM"
- line notation: "c1ccc2c(c1)CN(c1nc(Nc3cc(C4CC4)n[nH]3)c3ccccc3n1)C2"
  value measured: "< 100 nM"

Enter recorded Ki with UniProt:O14965 for Cc1cc(Nc2nc(N3CCCCCC3)nc3ccccc23)[nH]n1 here.
< 100 nM

Enter recorded Ki with UniProt:O14965 for Cc1cc(Nc2nc(-c3ccc(-c4ccccc4)cc3)nc3ccccc23)[nH]n1 here.
< 100 nM
